Listing: LogP of selected molecules
assay: Log P by HPLC on reversed phase columns (EEC directive 79/831 Annex V.A8; methods [a], [b], [c]); format: physicochemical

{"columns": ["MOLECULE", "LogP"],
 "data": [
  ["CC(O)(Cn1cncc1F)c1cnc(Oc2ccc(OC(F)(F)F)cc2)cc1C(F)(F)F (centres unmarked)", "2.51^[a]"],
  ["CCc1cc(Cl)ccc1C(O)(Cn1cncc1C#N)C1(Cl)CC1 (centres unmarked)", "3.00^[a]"],
  ["CC(C)(C)C(O)(Cn1cncc1C#N)c1ccc(Cl)cc1F (centres unmarked)", "3.00^[a]"],
  ["CC(O)(Cn1cncc1Cl)c1ccc(Oc2ccc(Cl)cc2)cc1 (centres unmarked)", "2.32^[a]"]
]}

Consider the additional molecule presented here.
Please give the measured LogP for this molecule: N#Cc1cncn1CC(O)(c1ccc(Cl)c(F)c1F)C1(F)CC1 (centres unmarked)
2.41^[a]

---

assay: Log P by HPLC on reversed phase columns (EEC directive 79/831 Annex V.A8; methods [a], [b], [c]); type: physicochemical
PARAMETER: LogP

Previously resolved entries follow.
{"columns": ["COMPOUND", "REPORTED"],
 "data": [
  ["CCCCC(O)(Cn1cncc1C#N)c1ccccc1F (stereo not shown) [I-287]", "2.51^[a]"],
  ["CC(O)(Cn1cncc1F)c1ccc(Oc2ccc(Cl)cc2)cc1C(F)(F)F (stereo not shown) [I-211]", "2.64^[a]"],
  ["COC(Cn1cncc1Br)c1ccc(Oc2ccc(Br)cc2)cc1Br (stereo not shown) [I-51]", "3.72^[a]"],
  ["CCCC(O)(Cn1cncc1C#N)c1ccc(F)cc1F (stereo not shown) [I-400]", "2.39^[a]"],
  ["CCCC(C)CCC(O)(Cn1cncc1C#N)C1(Cl)CC1 (stereo not shown) [I-677]", "3.69^[a]"]
]}

Please give the measured LogP for this compound: N#Cc1cncn1CC(O)(c1cc(F)ccc1Cl)C1(F)CC1 (stereo not shown) [I-439]
2.16^[a]

Same for N#Cc1cncn1CC(O)(c1ccc(Br)nc1Cl)C1(F)CC1 (stereo not shown) [I-683]
2.01^[a]

Same for N#Cc1cncn1CC(O)(c1ccc(F)c(F)c1Cl)C1(Cl)CC1 (stereo not shown) [I-628]
2.41^[a]

Same for OC(Cn1cncc1Br)c1ccc(Oc2ccccc2)cc1Cl (stereo not shown) [I-27]
2.21^[a]

Same for COCOC(Cn1cncc1C#N)c1ccc(Oc2ccc(Cl)cc2)cc1C(F)(F)F (stereo not shown) [I-82]
4.03^[a]

---

assay: Log P by HPLC on reversed phase columns (EEC directive 79/831 Annex V.A8; methods [a], [b], [c]); format: physicochemical
Listing: LogP of selected molecules

Previously resolved entries follow.
{"columns": ["MOLECULE", "REPORTED"],
 "data": [
  ["N#Cc1cncn1CC(O)(c1cc(F)c(Cl)cc1Cl)C1(Cl)CC1 (stereo not shown) [I-585]", "2.75^[a]"],
  ["N#Cc1cncn1CC(O)c1ccc(Oc2ccc(Cl)nc2)nc1C(F)(F)F (stereo not shown) [I-151]", "2.37^[a]"]
]}

Please give the measured LogP for this molecule: CC(O)(Cn1cncc1C#N)c1cnc(Oc2ccc(C(F)(F)F)cc2)cc1C(F)(F)F (stereo not shown) [I-218]
3.23^[a]

Same for N#Cc1cncn1CC(O)(c1ccc(F)nc1F)C1(F)CC1 (stereo not shown) [I-551]
1.79^[a]

Same for N#Cc1cncn1CC(O)c1cnc(Oc2ccc(Cl)nc2)cc1C(F)(F)F (stereo not shown) [I-152]
2.32^[a]

Same for N#Cc1cncn1CC(O)(CC1CC1)c1c(F)cc(Cl)cc1F (stereo not shown) [I-512]
2.67^[a]

Same for N#Cc1cncn1CC(O)(c1ccc(Br)cc1Cl)C1(F)CC1 (stereo not shown) [I-376]
2.76^[a]

Same for O=C(Cn1cncc1F)c1ccc(Oc2ccc(Cl)cc2)nc1C(F)(F)F [IX-106]
2.59^[a]

Same for CC(C)(C)C(O)(Cn1cncc1C#N)c1cc(F)c(Cl)c(Cl)c1 (stereo not shown) [I-545]
3.31^[a]

Same for OC(CCC1CCCC1)(Cn1cncc1C(F)(F)F)C1(Cl)CC1 (stereo not shown) [I-674]
4.10^[a]
